# target of assay: human GABAρ1 (Homo sapiens)
# Construct: expressed in transfected cells; host or cells: Xenopus laevis oocytes injected with in vitro transcribed mRNA
# Sequence (P24046 22-479): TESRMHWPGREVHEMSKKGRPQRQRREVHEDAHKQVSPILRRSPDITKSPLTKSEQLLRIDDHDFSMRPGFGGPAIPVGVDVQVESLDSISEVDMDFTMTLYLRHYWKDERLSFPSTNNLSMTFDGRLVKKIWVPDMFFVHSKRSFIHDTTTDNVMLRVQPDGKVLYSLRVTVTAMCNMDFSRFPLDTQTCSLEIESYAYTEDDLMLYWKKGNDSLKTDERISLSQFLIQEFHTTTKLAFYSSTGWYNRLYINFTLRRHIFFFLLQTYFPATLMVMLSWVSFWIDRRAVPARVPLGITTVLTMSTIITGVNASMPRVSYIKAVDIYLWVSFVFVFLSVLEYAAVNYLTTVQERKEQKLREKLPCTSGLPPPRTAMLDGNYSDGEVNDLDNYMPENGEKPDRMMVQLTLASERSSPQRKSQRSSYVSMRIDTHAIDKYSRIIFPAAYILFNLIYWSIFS
# assay notes: Inhibition of GABA currents by co-application of 3 µM GABA and analogue, two-microelectrode voltage clamp in X. laevis oocytes;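 further: oocytes expressing human GABAρ1 from injected mRNA, recorded 1–5 days later, clamped at −60 mV, room temperature, compounds bath-applied at pH 7.4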
# Format: cell-based
# test conditions: Table 1; oocytes
parameter: pIC50
Quick note: pIC50 values are minus log10 of concentrations in mol/L.

Query string: Requested field: pIC50. Item: O=C(O)Cc1ccc(O)c(O)c1 [DOPAC, 3,4-Dihydroxyphenylacetic acid]
Result string: 2.65

Query string: Would you mind doing NCCCCO [4-AM-1-OH, 4-Amino-1-butanol] as well?
Result string: 2.41

Now turn to the next molecule.
Query string: Param item = COc1cc(CC(=O)O)ccc1O [HVA, Homovanillic acid] ; retrieve measured pIC50.
Result string: 2.71
